Origin of the recorded values: patent US20260116921A1

Assay: in vitro
Settings: cynomolgus monkey, 20% fecal homogenate (supernatant), anaerobic, pH 6.8
Numbered stars: 1 amine (or outer) side, 2 acyl side, 3 side chain; on linkers, the order of the positions; unused ones are H or OH. Bridge positions count the residues as written; N and C are the ends. Square brackets hold non-standard residues; d marks the D form. Peptide text beside a SMILES is read from it. X4 = CC(C)c1cccc2c(C[C@H](N[*:1])C(=O)[*:2])c[nH]c12; 2Nal = N[C@@H](Cc1ccc2ccccc2c1)C(=O)O; AEF = NCCOc1ccc(C[C@H](N)C(=O)O)cc1; Pen = CC(C)(S)[C@H](N)C(=O)O; αMeK = C[C@](N)(CCCCN)C(=O)O
Value Kind: half-life at 20 μM

[
  {
    "Compound": "CC[C@H](C)[C@H](NC(=O)[C@H](CCCCNC(C)=O)NC(=O)[C@](C)(CC(C)C)NC(=O)[C@H](Cc1ccc2ccccc2c1)NC(=O)[C@H](Cc1ccc(OCCN)cc1)NC(=O)[C@H]1NC(=O)[C@H](CCC(N)=O)NC(=O)[C@H](Cc2c[nH]c3c(C)cccc23)NC(=O)[C@H]([C@@H](C)O)NC(=O)[C@H](CC(N)=O)NC(=O)[C@@H](NC(C)=O)C(C)(C)SSC1(C)C)C(=O)NCCC(N)=O [compound 216]",
    "Readout Value": "> 24 h"
  },
  {
    "Compound": "CC(=O)NCCCC[C@@H]1NC(=O)[C@H](Cc2c[nH]c3c(C(C)C)cccc23)NC(=O)[C@H]([C@@H](C)O)NC(=O)[C@H](CC(N)=O)NC(=O)[C@@H](NC(C)=O)C(C)(C)SSC(C)(C)[C@@H](C(=O)N[C@@H](Cc2ccc(OCCN)cc2)C(=O)N[C@@H](Cc2ccc3ccccc3c2)C(=O)N[C@@](C)(CCCCN)C(=O)N[C@@H](CCCCNC(C)=O)C(=O)N[C@@H](CC(N)=O)C(=O)N[C@H](CC(C)C)C(N)=O)NC1=O [compound 286] (Ac-[Pen]NT[X4]K(Ac)[Pen][AEF][2Nal][αMeK]K(Ac)N[dL]-NH2; disulfide 1-6)",
    "Readout Value": "> 24 h"
  }
]
